The measured values listed here are drawn from patent US20100093811A1.

System: acute HIV infection of T-lymphoid cells
MEASUREMENT_DESCRIPTION: Assay for inhibition of HIV replication (spread assay)
Type: cell-based, HIV-1
TEST_CONTEXT: Human immunodeficiency virus 1, T-lymphoid; read-out: Spread - IC95
PROPERTY: IC95 (nM)
Report the value in nM with no unit label.

Query string: Find the measured IC95 of CCCN([C@H](CO)CCC[C@H](CC)NC(=O)[C@@H](NC(=O)OC)C(c1ccccc1)c1ccccc1)S(=O)(=O)c1ccc(N)cc1 [Example F5] and report it.
Result string: 54

Query string: Identify IC95 associated with the compound COC(=O)N[C@@H](Cc1ccccc1Cl)C(=O)N[C@@H](C)CCC[C@@H](CO)N(C)S(=O)(=O)c1ccc(CO)cc1 [Example G8]
Result string: 191

Query string: Answer with the recorded IC95 for the compound listed here: COC(=O)N[C@H](C(=O)N[C@@H](C)CCC[C@@H](CO)N(C(C)C)S(=O)(=O)c1ccc(N)cc1)C(c1ccccc1)c1ccccc1 [Example F1]
Result string: 32
